Biological target: Ubiquitin carboxyl-terminal hydrolase 7 (Homo sapiens)
Sequence (Q93009 whole entry): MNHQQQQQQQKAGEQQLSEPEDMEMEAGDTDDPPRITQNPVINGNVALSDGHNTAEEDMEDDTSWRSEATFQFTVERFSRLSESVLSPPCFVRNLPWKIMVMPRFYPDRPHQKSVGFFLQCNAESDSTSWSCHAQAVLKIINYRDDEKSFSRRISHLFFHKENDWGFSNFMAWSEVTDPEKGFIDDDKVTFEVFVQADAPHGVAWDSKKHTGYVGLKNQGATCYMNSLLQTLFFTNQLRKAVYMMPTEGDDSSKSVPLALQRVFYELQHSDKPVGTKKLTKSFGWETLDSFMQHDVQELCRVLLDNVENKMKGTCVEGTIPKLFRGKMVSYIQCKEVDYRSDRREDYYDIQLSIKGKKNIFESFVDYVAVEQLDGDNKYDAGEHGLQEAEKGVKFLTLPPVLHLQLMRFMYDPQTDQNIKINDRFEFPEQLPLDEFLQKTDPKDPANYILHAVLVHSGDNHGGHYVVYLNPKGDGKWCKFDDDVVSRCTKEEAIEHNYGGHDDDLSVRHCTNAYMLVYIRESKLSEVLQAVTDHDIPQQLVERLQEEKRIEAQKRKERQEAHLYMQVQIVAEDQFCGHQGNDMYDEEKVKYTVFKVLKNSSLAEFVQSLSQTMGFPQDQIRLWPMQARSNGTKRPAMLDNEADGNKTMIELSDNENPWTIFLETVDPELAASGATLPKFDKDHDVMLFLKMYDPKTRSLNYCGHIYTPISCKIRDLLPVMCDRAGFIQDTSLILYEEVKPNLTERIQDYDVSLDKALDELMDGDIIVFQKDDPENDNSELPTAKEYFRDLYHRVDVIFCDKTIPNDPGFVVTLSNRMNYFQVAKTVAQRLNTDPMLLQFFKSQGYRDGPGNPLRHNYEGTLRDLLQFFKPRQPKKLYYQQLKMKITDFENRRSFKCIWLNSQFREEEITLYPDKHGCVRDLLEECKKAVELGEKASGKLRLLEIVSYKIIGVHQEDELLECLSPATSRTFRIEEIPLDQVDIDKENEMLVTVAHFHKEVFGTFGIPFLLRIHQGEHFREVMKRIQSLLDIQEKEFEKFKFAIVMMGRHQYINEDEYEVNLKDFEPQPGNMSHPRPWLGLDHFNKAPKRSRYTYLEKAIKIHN
Assay: Inhibition of USP7 (unknown origin) by Ub-PLA2 assay
MEASUREMENT_NAME: IC50 (µM)
Numbers only, in µM.

CC(=O)c1cc([N+](=O)[O-])c(Sc2ccc(Cl)cc2)s1    11.8
CC(=O)c1cc([N+](=O)[O-])c(Sc2ccccc2Cl)s1    12.9
CC(O)c1cc([N+](=O)[O-])c(Sc2ccc(Cl)cc2Cl)s1 (stereo not drawn)    20.1
CCCCc1cc([N+](=O)[O-])c(Sc2ccc(Cl)cc2Cl)s1    13.9
CC(=O)c1cc([N+](=O)[O-])c(Sc2cccc(Cl)c2)s1    7

Hello, I would appreciate it if you could give IC50 for each entry below.
1. CC(=O)c1cc([N+](=O)[O-])c(Sc2cc(Cl)cc(Cl)c2)s1
2. CC(=O)c1cc([N+](=O)[O-])c(Sc2ccc(Cl)cc2Cl)s1

output:
1. 6.4
2. 6.5
